target: a4(V824A)b7 (human) (UniProt P13612); assay: FACS on transfected 293 cells, 1 microG/ml, PE anti-human IgG
Sequence (P13612 34-1032 V824A, chain 1 of 2): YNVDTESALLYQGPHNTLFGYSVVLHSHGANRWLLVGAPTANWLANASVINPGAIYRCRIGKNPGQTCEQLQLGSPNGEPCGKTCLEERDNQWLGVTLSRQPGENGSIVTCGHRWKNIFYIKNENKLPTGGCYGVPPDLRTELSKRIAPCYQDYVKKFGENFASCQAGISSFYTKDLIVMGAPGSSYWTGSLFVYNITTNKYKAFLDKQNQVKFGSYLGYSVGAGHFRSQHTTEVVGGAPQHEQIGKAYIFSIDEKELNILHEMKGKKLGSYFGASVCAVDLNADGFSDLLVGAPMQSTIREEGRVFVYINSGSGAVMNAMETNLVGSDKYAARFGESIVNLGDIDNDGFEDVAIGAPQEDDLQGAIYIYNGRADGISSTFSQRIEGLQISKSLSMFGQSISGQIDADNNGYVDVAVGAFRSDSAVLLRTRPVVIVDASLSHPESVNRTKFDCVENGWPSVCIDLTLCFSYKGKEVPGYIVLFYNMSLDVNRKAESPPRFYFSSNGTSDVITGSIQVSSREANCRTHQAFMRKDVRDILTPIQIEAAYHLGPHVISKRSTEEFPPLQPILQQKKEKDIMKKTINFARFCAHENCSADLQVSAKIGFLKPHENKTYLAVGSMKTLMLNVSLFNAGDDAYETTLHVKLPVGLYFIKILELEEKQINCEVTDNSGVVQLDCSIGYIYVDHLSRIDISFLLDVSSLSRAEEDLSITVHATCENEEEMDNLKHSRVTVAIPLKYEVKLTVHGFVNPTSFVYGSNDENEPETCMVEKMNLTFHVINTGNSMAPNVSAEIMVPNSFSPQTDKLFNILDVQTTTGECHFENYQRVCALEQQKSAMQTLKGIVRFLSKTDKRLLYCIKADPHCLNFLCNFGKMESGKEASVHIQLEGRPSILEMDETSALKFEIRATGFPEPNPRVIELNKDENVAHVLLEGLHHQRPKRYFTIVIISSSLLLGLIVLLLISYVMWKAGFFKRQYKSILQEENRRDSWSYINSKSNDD
Sequence (P26010 20-798, chain 2 of 2, further chain): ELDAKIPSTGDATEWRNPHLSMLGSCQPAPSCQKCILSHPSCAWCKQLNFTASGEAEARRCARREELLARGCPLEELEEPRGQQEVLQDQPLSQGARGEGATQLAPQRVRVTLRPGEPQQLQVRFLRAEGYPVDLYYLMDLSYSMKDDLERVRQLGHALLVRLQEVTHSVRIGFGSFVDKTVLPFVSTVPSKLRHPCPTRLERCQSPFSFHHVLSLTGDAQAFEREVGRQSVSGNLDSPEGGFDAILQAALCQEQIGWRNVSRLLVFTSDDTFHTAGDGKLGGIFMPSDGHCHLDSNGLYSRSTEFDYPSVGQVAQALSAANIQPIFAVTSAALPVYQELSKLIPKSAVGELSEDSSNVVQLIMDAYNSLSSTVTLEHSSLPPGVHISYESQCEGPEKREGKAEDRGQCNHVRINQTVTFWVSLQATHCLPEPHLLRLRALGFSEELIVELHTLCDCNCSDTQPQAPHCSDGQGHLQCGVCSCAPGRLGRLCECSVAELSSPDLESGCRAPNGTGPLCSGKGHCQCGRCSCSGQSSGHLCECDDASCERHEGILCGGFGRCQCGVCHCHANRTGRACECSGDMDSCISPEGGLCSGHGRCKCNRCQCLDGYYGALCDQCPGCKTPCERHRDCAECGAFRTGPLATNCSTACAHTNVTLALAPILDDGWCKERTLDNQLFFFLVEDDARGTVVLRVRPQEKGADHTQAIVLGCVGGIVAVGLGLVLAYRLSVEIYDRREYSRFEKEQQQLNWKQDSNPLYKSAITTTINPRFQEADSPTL
readout: fluorescence staining intensity (geometric mean)
// no unit, no text: just the number

Give a short answer stating reported fluorescence staining intensity (geometric mean) for 18A11 (antibody, V domains shown, Fully human monoclonal from XenoMouse (human IgG2 or IgG4); kappa light chain; also called 18A11K; 18A11H) VH: QVQLVQSGAEVKKPGASVKVSCKVSGYTLSDLSIHWVRQAPGKGLEWMGGFDPQDGETIYAQKFQGRVTMTEDTSTDTAYMELSSLKSEDTAVYYCATGSSSSWFDPWGQGTLVTVSS VL: DIQMTQSPSSVSASVGDRVTITCRASQGISSWLAWYQQKPGKAPKLLIYGASNLESGVPSRFSGSGSGTDFTLTISSLQPEDFANYYCQQANSFPWTFGQGTKVEIK .
82

Give a short answer stating reported fluorescence staining intensity (geometric mean) for 1A10 (antibody, V domains shown, Fully human monoclonal from XenoMouse XG2kl or XG4kl mice (human IgG2 or IgG4); kappa light chain; also called 1A10K; 1A10H) VH: QVQLVQSGAEVKKPGASVKVSCKVSGYTLNDLSMHWVRQAPGKGLEWMGGFDPAEGKIISAQKFQDRVTMTDDTSTDTAYMELSSLRSEDSAVYYCATLDFSSWFDPWGQGTLVTVSS VL: DIQMTQSPSSVSASVGDRVTITCRASQGVSSWLAWYQQKPGMAPKLLIYAASILQSGVPSRFSGSGSGTDFTLTISSLQPEDFATYYCQQANSFPWTFGQGTKVEIK .
102

Next:
Give a short answer stating reported fluorescence staining intensity (geometric mean) for 2F12 (antibody, V domains shown, Fully human monoclonal from XenoMouse (human IgG2 or IgG4); kappa light chain; also called 2F12K; 2F12H) VH: QVQLVQSGAEVKKPGASVKVSCKVSGYTVTDLSMHWVRQAPGKGLEWMGGFDPQDGETIYAQKFQGRVTMTEDTSTDTAYMELRSLRSEDTAVYYCTTESSSAWFDPWGQGTLVTVSS VL: DIQMTQSPSSVFASVGDRVTITCRASQGISSWLAWYQQKPGKAPNLLIYGASSLQNGVPLRFSGSGSGTDFTLTISSLQPEDFATYYCQQANSFPWTFGQGTKVEIK .
112

These entries and their values trace back to patent US20100254975A1.
